# study-system: T1, mouse EGFL7 (mEGFL7-CB-His) (mouse, UniProt Q9QXT5 22-275)
# T1 sequence: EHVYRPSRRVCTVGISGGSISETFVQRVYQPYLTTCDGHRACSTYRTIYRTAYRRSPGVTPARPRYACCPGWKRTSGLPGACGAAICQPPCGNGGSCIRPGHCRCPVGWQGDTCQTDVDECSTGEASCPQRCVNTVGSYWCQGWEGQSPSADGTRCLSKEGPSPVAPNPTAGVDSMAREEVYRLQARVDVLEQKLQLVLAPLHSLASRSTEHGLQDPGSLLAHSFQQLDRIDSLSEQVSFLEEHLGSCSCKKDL
# assay: SPR (Biacore), IgG over immobilized mEGFL7-CB at 37 C;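 note: IgG injected as twofold series from 0.5 to 1000 nM, 3 min association and 3.5 min dissociation, reference flow cell subtracted, kinetics fitted to 1:1 Langmuir model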
assay-metric: Kd (nM)
Give just the number in nM; leave the unit off.

Q: Please supply the value of reported Kd for the item 18F7.v6I IgG (antibody, V domains shown, IgG; Variant of 18F7.v6) VH: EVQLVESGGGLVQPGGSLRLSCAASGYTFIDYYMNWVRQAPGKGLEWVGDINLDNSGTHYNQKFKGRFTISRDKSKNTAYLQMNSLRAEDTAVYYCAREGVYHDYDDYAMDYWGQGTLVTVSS VL: DIQMTQSPSSLSASVGDRVTITCRTSQSLVHIQGITYLHWYQQKPGKAPKLLIYRVSNRFSGVPSRFSGSGSGTDFTLTISSLQPEDFATYYCGQSTHVPLTFGQGTKVEIK
A: 21.3

New cases:
Q: Please supply the value of reported Kd for the item 18F7.v6D IgG (antibody, V domains shown, IgG; Variant of 18F7.v6) VH: EVQLVESGGGLVQPGGSLRLSCAASGYTFIDYYMNWVRQAPGKGLEWVGDINLDSGGTHYNQKFKGRFTISRDKSKNTAYLQMNSLRAEDTAVYYCAREGVYHDYDDYAMDYWGQGTLVTVSS VL: DIQMTQSPSSLSASVGDRVTITCRTSQSLVHISGITYLHWYQQKPGKAPKLLIYRVSNRFSGVPSRFSGSGSGTDFTLTISSLQPEDFATYYCGQSTHVPLTFGQGTKVEIK
A: 7.65
